Test system: SHI-1
assayOverview: cell viability (% survival relative to DMSO control, bortezomib = 0%); higher = less cytotoxic
assayContext: 1000 nM; 72 h
Reported cell viability values for the following compounds.
Entry rule: numbers only, all in %.

compound="CCN(CC)C(=S)SSC(=S)N(CC)CC [Disulfiram]" targetortestsystem=SHI-1 measuredresult=-0.354
compound="Cc1cc(C(=O)NNCc2ccccc2)no1 [Isocarboxazid]" targetortestsystem=SHI-1 measuredresult=99.1
compound="Cc1c(Cl)cccc1S(=O)(=O)Nc1nc(CC(=O)N2CCN(C)CC2)cs1 [BVT-2733]" targetortestsystem=SHI-1 measuredresult=111

// moving on: another record for cell viability
cell viability reading for COC(=O)c1cc2c(C(F)(F)F)cc(-c3ccccc3)cc2n1O [NHI-2] : 93.6
